- measured-target: T1, IL10Rα/IL2Rγ receptor (human, UniProt Q13651 22-578; P31785 23-369)
- T1 sequence (looked up) 1: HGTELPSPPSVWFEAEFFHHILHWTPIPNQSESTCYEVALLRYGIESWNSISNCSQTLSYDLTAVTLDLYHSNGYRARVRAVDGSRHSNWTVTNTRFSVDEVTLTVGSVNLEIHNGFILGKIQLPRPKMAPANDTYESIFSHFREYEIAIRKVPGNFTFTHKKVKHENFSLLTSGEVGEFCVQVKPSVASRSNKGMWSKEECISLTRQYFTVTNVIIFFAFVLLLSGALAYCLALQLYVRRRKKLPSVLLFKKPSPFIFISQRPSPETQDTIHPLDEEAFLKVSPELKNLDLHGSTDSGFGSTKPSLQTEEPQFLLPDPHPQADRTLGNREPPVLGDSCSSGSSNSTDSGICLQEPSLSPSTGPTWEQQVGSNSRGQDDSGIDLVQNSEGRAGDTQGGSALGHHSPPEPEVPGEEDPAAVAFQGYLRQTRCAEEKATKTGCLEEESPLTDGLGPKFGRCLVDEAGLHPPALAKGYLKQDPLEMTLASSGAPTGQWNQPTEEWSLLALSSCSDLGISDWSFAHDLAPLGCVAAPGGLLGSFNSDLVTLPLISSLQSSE
- T1 sequence (looked up) 2: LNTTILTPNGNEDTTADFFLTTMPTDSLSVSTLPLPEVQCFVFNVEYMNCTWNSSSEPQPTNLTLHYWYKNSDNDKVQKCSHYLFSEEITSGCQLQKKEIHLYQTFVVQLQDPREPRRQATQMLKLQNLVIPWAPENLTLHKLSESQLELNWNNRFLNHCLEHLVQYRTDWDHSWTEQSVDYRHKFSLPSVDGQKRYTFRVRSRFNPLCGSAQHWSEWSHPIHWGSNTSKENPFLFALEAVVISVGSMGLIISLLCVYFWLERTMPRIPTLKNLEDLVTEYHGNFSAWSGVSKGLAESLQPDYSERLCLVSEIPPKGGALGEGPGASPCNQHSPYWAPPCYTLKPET
- run-description: cell-based or functional assay
measurement-name: pSTAT3 MFI, Monocytes, 10 nM (unstimulated 2116)

Lookup: Find the recorded pSTAT3 MFI, Monocytes, 10 nM (unstimulated 2116) belonging to DR395(DR229-DR239) (bispecific antibody) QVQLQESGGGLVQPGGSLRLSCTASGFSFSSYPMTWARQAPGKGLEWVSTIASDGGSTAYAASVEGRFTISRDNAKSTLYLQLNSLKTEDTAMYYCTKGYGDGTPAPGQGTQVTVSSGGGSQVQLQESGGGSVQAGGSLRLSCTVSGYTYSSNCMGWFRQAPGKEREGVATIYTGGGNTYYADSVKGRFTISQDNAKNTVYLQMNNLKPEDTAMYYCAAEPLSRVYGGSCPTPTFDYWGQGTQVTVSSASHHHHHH and report it.
Found: 2340 MFI
